Tested on: UACC-257 melanoma
procedure summary: NCI-60 one-dose screen, 48 h (100 = growth as untreated, 0 = no growth, -100 = all killed)
test context: 10 µM unless noted
The panel holds about 83,000 compounds, 20% with a hit somewhere; the sample as a whole holds those more often.
Mark each entry 1 (yes) if its growth sits below 90%, and 0 (no) for all others.

Confirm or reject: growth of O=[N+]([O-])c1cccc(SSc2cccc([N+](=O)[O-])c2)c1 lies strictly below 90%
0 (no)

Lab log: compare recorded growth with 90%; is it strictly lower for C#CCOC(=O)Nc1ccccc1 ?
0 (no)

Please indicate whether the reported growth of O=C(/C=C/c1ccccc1)c1ccccc1 is strictly below 90%.
0 (no)

Input CC(C)(O)C(=O)O ; condition: growth strictly below 90%. Does it hold?
0 (no)

Lab note: confirm whether the reported growth for this molecule is below 90%, equality not counting. molecule: Nc1ncnc2c1ncn2C1OC(COP(=O)(O)O)C(O)C1O (stereo not given)
0 (no)

is_below(growth, 90%) for c1ccc(-c2nc3ccccc3s2)cc1 ?
0 (no)

Does this molecule meet the criterion growth < 90%? N#CC(C#N)N=Nc1ccc(Cl)cc1
1 (yes)

Lab note: confirm whether the reported growth for this molecule is below 90%, equality not counting. molecule: CCCCNc1ccc(Nc2ccccc2)cc1
1 (yes)
